# measurement_parameters: 303.15 K; 101 kPa; Liquid
quantity: viscosity (mPa·s)
Just the number in mPa·s, nothing appended.

smiles_text: COc1ccccc1
result_unit: mPa·s
recorded_number: 0.913

Turning now to a further record.
Ask | Please look up its viscosity: "CC(C)CCO"
Reply | 3.261

====

This section presents compounds with their documented speed of sound values.
# measurement_parameters: 298.15 K; 101 kPa; Liquid
Just the number in m/s, nothing appended.

Completed entries (count: 5):
smiles_text: CCCCO
speed of sound (m/s): 1246

smiles_text: CCCCCO
speed of sound (m/s): 1286

smiles_text: CC(C)CCO
speed of sound (m/s): 1241

smiles_text: CCO
speed of sound (m/s): 1161

smiles_text: COc1ccccc1
speed of sound (m/s): 1412

Ask | Please look up its speed of sound: "CC(C)O"
Reply | 1141

Ask | Please look up its speed of sound: "CCCO"
Reply | 1206

====

This section presents molecules with their documented viscosity values.
# measurement_parameters: 308.15 K; 101 kPa; Liquid
± gives the expanded uncertainty stated by the source.
Answer with the value and then the unit.

smiles_text: CCCCCO
viscosity: 2.581 ± 0.3 mPa·s

smiles_text: CCO
viscosity: 0.889 ± 0.12 mPa·s

smiles_text: CCCCO
viscosity: 1.981 ± 0.24 mPa·s

smiles_text: CC(C)O
viscosity: 1.521 ± 0.18 mPa·s

Ask | Please look up its viscosity: "COc1ccccc1"
Reply | 0.854 ± 0.11 mPa·s

Ask | Please look up its viscosity: "CCCO"
Reply | 1.518 ± 0.18 mPa·s

====

# measurement_parameters: 303.15 K; 101 kPa; Liquid
This section presents compounds with their documented mass density values.
Just the number in kg/m3, nothing appended.

smiles_text: CC(C)CCO
mass density (kg/m3): 803.45

smiles_text: CC(C)O
mass density (kg/m3): 777.09

Ask | Please look up its mass density: "COc1ccccc1"
Reply | 984.45

Ask | Please look up its mass density: "CCCCCO"
Reply | 807.23

Ask | Please look up its mass density: "CCCO"
Reply | 795.93

Ask | Please look up its mass density: "CCO"
Reply | 781.6

Ask | Please look up its mass density: "CCCCO"
Reply | 802.28

====

This section presents molecules with their documented refractive index values.
# procedure_text: refractive index (Na D-line) (dimensionless)
# measurement_parameters: 298.15 K; 101.33 kPa; Liquid
# answer = number (no unit)

molecule: CCCCO [butan-1-ol]
recorded_number: 1.3968

molecule: COc1ccccc1 [anisole]
recorded_number: 1.5137

molecule: CCCCCO [pentan-1-ol]
recorded_number: 1.4073

molecule: CC(C)O [propan-2-ol]
recorded_number: 1.3745

molecule: CCO [ethanol]
recorded_number: 1.3591

molecule: CCCO [propan-1-ol]
recorded_number: 1.3826

Turning now to a further record.
Ask | Please look up its refractive index: CC(C)CCO [3-methylbutan-1-ol]
Reply | 1.405

====

# procedure_text: refractive index (Na D-line) (dimensionless)
# measurement_parameters: 308.15 K; 101.33 kPa; Liquid
This section presents compounds with their documented refractive index values.
# answer = number (no unit)

Ask | Please look up its refractive index: COc1ccccc1 [anisole]
Reply | 1.5088

Ask | Please look up its refractive index: CC(C)O [propan-2-ol]
Reply | 1.3702

Ask | Please look up its refractive index: CCO [ethanol]
Reply | 1.355

Ask | Please look up its refractive index: CCCCO [butan-1-ol]
Reply | 1.3923

Ask | Please look up its refractive index: CCCO [propan-1-ol]
Reply | 1.3782

Ask | Please look up its refractive index: CCCCCO [pentan-1-ol]
Reply | 1.4032

====

# measurement_parameters: 308.15 K; 101 kPa; Liquid
Outcome: Y for mass density of at least 800 kg/m3; N for anything lower.

Ask | Could you please find out whether CC(C)O [propan-2-ol] has mass density that meets 800 kg/m3 or exceeds it?
Reply | N

Ask | Could you please find out whether COc1ccccc1 [anisole] has mass density that meets 800 kg/m3 or exceeds it?
Reply | Y

====

# procedure_text: refractive index (Na D-line) (dimensionless)
# measurement_parameters: 303.15 K; 101.33 kPa; Liquid
quantity: refractive index
# answer = number (no unit)

Completed entries (count: 6):
smiles_text: CC(C)O
recorded_number: 1.3721
//
smiles_text: CCCO
recorded_number: 1.3808
//
smiles_text: CCO
recorded_number: 1.3572
//
smiles_text: CCCCCO
recorded_number: 1.405
//
smiles_text: COc1ccccc1
recorded_number: 1.5113
//
smiles_text: CC(C)CCO
recorded_number: 1.403

Turning now to a further record.
Ask | Please look up its refractive index: "CCCCO"
Reply | 1.3944

====

# measurement_parameters: 298.15 K; 101 kPa; Liquid
Rule for this label: Criterion met means viscosity is less than 2 mPa·s; Criterion not met means viscosity is at least 2 mPa·s.

smiles_text: CCCCCO
classification: Criterion not met

smiles_text: CCO
classification: Criterion met

smiles_text: COc1ccccc1
classification: Criterion met

smiles_text: CC(C)CCO
classification: Criterion not met

smiles_text: CCCO
classification: Criterion met

Consider now this further compound.
Ask | For this compound, is viscosity lower than 2 mPa·s? "CCCCO"
Reply | Criterion not met

====

# measurement_parameters: 298.15 K; 101 kPa; Liquid
quantity: mass density (kg/m3)
Just the number in kg/m3, nothing appended.

Completed entries (count: 6):
smiles_text: COc1ccccc1
mass density (kg/m3): 989.15
--
smiles_text: CCCCO
mass density (kg/m3): 806.12
--
smiles_text: CCO
mass density (kg/m3): 785.91
--
smiles_text: CC(C)O
mass density (kg/m3): 781.36
--
smiles_text: CCCO
mass density (kg/m3): 799.96
--
smiles_text: CC(C)CCO
mass density (kg/m3): 807.2

Turning now to a further record.
Ask | Please look up its mass density: "CCCCCO"
Reply | 810.92

====

# measurement_parameters: 303.15 K; 101 kPa; Liquid
Numbers after ± are expanded uncertainties.
quantity: viscosity

Completed entries (count: 3):
smiles_text: CCCO
viscosity: 1.706 ± 0.2 mPa·s
--
smiles_text: CCO
viscosity: 0.971 ± 0.12 mPa·s
--
smiles_text: CC(C)O
viscosity: 1.755 ± 0.21 mPa·s

Ask | Please look up its viscosity: "CCCCCO"
Reply | 2.959 ± 0.34 mPa·s

Ask | Please look up its viscosity: "CCCCO"
Reply | 2.284 ± 0.27 mPa·s

====

# measurement_parameters: 308.15 K; 101 kPa; Liquid
quantity: mass density (kg/m3)
Just the number in kg/m3, nothing appended.

smiles_text: CC(C)CCO
quantity: mass density
recorded_number: 791.86

smiles_text: CCO
quantity: mass density
recorded_number: 777.26

smiles_text: CCCCCO
quantity: mass density
recorded_number: 803.52

smiles_text: CCCCO
quantity: mass density
recorded_number: 798.41

Ask | Please look up its mass density: "CCCO"
Reply | 791.86
